For each of the compounds below, state its Normal boiling temperature.
- ASSAY_SETUP: Liquid; Ebulliometric method (Recirculating still)
Numbers after ± are expanded uncertainties.
A complete answer gives the number followed by the unit.

Previously resolved entries follow.
INSERT INTO assay_data (compound, meas_value) VALUES
  ('C[S+](C)[O-] [dimethyl sulfoxide]', '189.04 ± 0.41 °C'),
  ('ClCCCl', '83.80 ± 0.41 °C'),
  ('CC(Cl)(Cl)Cl', '74.20 ± 0.41 °C'),
  ('ClC=C(Cl)Cl', '87.10 ± 0.41 °C');

// batch mode: one Normal boiling temperature value per listed entry
1. ClC(Cl)=C(Cl)Cl
2. ClC(Cl)C(Cl)Cl

OUT:
121.00 ± 0.41 °C
145.20 ± 0.41 °C
